Collected from the literature: pIC50 of various molecules toward Rho-associated protein kinase 1 (Homo sapiens, UniProt Q13464).
pIC50: −log10 of the molar value.

Examples with answers:
Molecule: Nc1nccc(-c2ccc(NC(=O)[C@H](N)c3ccccc3)cc2)n1
Tested Target: Rho-associated protein kinase 1 (Homo sapiens, UniProt Q13464)
Test Result: 7.38
//
Molecule: COc1cc(-c2cn[nH]c2)ccc1C(=O)NCc1ccccc1Cl
Tested Target: Rho-associated protein kinase 1 (Homo sapiens, UniProt Q13464)
Test Result: 7.95
//
Molecule: COc1cc(F)cc(CN(C)C(=O)N2CCc3cc(-c4cn[nH]c4)ccc32)c1
Tested Target: Rho-associated protein kinase 1 (Homo sapiens, UniProt Q13464)
Test Result: 5.30 to 6.30
//
Molecule: COc1cccc(C(CN)NC(=O)c2cc(-c3ccc4[nH]nc(C)c4c3)ccc2OC(F)F)c1 (centres unmarked)
Tested Target: Rho-associated protein kinase 1 (Homo sapiens, UniProt Q13464)
Test Result: 7.17
//
Molecule: CCN(CC)C(=O)c1cc2ccc(-c3ncc(OC)c(Nc4ccc(-c5cn[nH]c5)cc4)n3)cc2[nH]1
Tested Target: Rho-associated protein kinase 1 (Homo sapiens, UniProt Q13464)
Test Result: < 5.00
//
Molecule: Cc1cn(-c2cccc(NC(=O)c3cccnc3)c2)nc1Nc1ccc2[nH]ncc2c1
Tested Target: Rho-associated protein kinase 1 (Homo sapiens, UniProt Q13464)
Test Result: > 6.52

// pIC50 (Rho-associated protein kinase 1 (Homo sapiens, UniProt Q13464)) for "COc1cc(F)cc(CNC(=O)N2CCc3nc(-c4cn[nH]c4)ncc32)c1" = ≥ 7.30

Tested on Rho-associated protein kinase 1 (Homo sapiens, UniProt Q13464): "Cn1c(C(=O)N2CC(F)(F)C2)cc2c1CN(c1nc(F)cc(Nc3ccc(-c4cn[nH]c4)cc3)n1)CC2" . Observed pIC50: < 5.35
